Values compiled from patent US10770169B2.

- Test system: panel of 55 breast cancer cell lines
- PROTOCOL: Cell growth inhibition assay (Cell Titer Glo, 72 h, 9 doses; GI50, TGI, LC50)
- Assay type: cell-based, human
- TEST CONDITIONS: BT20 cell line; censored GI50 values; value is the negative log10 of mol/L
READOUT NAME: GI50
# print the numeric value only

Examples with their reported GI50 follow.
- MOLECULE: "Cc1cc(C(C)Nc2ccccc2)c2nc(N3CCOCC3)cc(=O)n2c1 (stereo not shown) [TGX-221]"
  STUDY SYSTEM: "panel of 55 breast cancer cell lines"
  READOUT NUMBER: 4.77
- MOLECULE: "N#Cc1c(NC(=O)c2cccc3ccccc23)sc2c1CCCC2 [TCS JNK 5a]"
  STUDY SYSTEM: "panel of 55 breast cancer cell lines"
  READOUT NUMBER: 5.97
- MOLECULE: "O=c1[nH]c2ccccc2n1C1CCN(Cc2ccc(-c3nc4cc5[nH]cnc5cc4nc3-c3ccccc3)cc2)CC1 [Sigma AKT1-2 inhibitor]"
  STUDY SYSTEM: "panel of 55 breast cancer cell lines"
  READOUT NUMBER: 5.00

// query GI50 value for entry Cc1cc(Nc2cc(N3CCN(C)CC3)nc(Sc3ccc(NC(=O)C4CC4)cc3)n2)n[nH]1 [VX-680] 4.72
